Values compiled from the Human Domainome abundance scans (Beltran et al. 2025).

B1: Homeobox protein cut-like 1, residues 941 to 1008; numbered along this chain, P39880 (parent)
chain: QEVDTIELTRQVKEKLAKNGICQRIFGEKVLGLSQGSVSDMLSRPKPWSKLTQKGREPFIRMQLWLNG

- Variants of: B1
- Assay overview: abundance fitness (aPCA) (normalised: wild type 0, dead -1); higher = more abundant; growth selection in yeast, the domain comes from the species named
- Run conditions: Homo sapiens
Measurement kind: abundance fitness
Form field (numeric): enter value without unit.

Answered cases to consult:
P47Y | -0.25
W48L | -0.398
T9L | -0.405

So what does the record say about abundance fitness for `L16A` ? -0.188

// same read-out, input: `I6T` -0.029

Same for `V30L` -0.416
